- Target Of Assay: T1, recombinant human LAG3 expressed with a C-terminal mouse IgG2a mFc tag (human)
- T1 construct: Called dimeric; also called hLAG3-mFc; hLAG3 dimer
- T1 chain: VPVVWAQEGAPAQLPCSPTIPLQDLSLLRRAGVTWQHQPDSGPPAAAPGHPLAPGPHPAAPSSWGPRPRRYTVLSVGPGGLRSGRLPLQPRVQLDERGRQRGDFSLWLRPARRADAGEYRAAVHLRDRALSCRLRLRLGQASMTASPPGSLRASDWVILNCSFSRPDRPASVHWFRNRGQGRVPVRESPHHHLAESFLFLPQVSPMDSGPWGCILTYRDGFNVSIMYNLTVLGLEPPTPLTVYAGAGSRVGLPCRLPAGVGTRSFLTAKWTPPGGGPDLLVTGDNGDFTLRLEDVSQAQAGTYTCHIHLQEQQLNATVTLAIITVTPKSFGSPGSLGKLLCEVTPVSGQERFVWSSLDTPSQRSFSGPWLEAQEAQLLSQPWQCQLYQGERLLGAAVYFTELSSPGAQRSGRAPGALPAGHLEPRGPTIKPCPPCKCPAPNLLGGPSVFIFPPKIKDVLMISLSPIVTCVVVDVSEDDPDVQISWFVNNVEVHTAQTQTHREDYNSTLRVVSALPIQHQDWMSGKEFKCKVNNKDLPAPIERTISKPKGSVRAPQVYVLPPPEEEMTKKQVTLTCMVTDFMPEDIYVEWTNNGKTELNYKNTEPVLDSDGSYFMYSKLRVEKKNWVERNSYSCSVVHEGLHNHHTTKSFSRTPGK
- Assay Info: SPR, mAb captured, 25 C
Measurement Type: t1/2 (h)
Give just the numeric value; h need not be written.

>  <Binder>
H4H17819P (antibody, human IgG4, V domains shown, H4H = human IgG4 Fc with S108P hinge mutation) VH: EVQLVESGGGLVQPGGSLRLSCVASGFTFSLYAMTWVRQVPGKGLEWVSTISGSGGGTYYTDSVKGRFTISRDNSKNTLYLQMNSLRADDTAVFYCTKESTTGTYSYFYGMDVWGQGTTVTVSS VL: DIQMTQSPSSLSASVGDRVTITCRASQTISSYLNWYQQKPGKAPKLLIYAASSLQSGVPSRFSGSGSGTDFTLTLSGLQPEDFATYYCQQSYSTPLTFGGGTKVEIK

>  <Measurement Type>
t1/2

>  <Scale Unit>
h

>  <Quantitative Readout>
1.07

$$$$
>  <Binder>
H4sH14813N (antibody, human IgG4 S228P, kappa, V domains shown, H4sH = modified human IgG4 Fc) VH: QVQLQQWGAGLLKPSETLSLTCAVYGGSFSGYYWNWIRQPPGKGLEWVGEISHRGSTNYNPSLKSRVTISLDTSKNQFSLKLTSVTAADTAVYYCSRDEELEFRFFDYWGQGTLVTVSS VL: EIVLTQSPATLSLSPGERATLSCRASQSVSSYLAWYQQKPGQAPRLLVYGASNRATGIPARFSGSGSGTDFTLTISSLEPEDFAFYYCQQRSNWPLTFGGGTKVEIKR

>  <Measurement Type>
t1/2

>  <Scale Unit>
h

>  <Quantitative Readout>
10.1

$$$$

Q: Given the binder H4H17823P (antibody, human IgG4, V domains shown, H4H = human IgG4 Fc with S108P hinge mutation) VH: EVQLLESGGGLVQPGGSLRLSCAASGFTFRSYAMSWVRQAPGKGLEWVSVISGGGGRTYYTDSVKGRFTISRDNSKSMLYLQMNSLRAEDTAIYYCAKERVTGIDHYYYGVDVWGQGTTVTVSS VL: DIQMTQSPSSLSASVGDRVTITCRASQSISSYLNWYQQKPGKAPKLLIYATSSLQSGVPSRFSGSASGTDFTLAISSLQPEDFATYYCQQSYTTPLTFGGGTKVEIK , what is its reported t1/2?
Ans: 0.882
